Data origin: patent US20250352529A1

System: H508 human CRC cells
Experiment: WST-1 cell proliferation assay, H508 cells
Assay type: cell-based
Details: Homo sapiens, NCI-H508, H508 cells, xanomeline plus 30 μM darifenacin; read-out: half-maximal inhibitory concentration (IC50), cell proliferation
Procedure: FIG. 6A) Treating H508 cells for 5 days with carbachol (carb), a non-selective muscarinic receptor agonist stimulates cell proliferation measured using the WST-1 Cell Proliferation Assay (Roche). Cont, control; Carb, carbachol. […] Human colon cancer cell lines (H508, HCT116) were grown in complete culture medium in a 37° C. incubator with 5% CO2 and sub-cultured weekly. […] Cell proliferation and cytotoxicity were measured using the WST-1 and LDH colorimetric assays, respectively. […]
Property Label: pIC50
Answers are plain numbers, as −log10 of the molar value.

Q. # input compound: CCCCCCOc1nsnc1C1=CCCN(C)C1 ; wanted: its pIC50
A. 4.67
